- target.under.test: amyloid β (Aβ42) (Homo sapiens)
- Sequence (P05067 672-713): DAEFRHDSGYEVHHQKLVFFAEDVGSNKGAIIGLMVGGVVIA
readout.label: IC50 (µM)
Field format: number, assumed µM, no unit text.

Value lookup for IC50; key = COc1cc(OC)c(C(=O)/C=C/c2ccccc2)c(O)c1O [DDC, 2′,3′-dihydroxy-4′,6′-dimethoxychalcone] 10.6

Source of measurements: paper PMC9709778
